# Tested on: DU-145 prostate
# measurement-protocol: NCI tumour cell line growth inhibition, 48 h
quantity-measured: TGI

# annotated cases, reported TGI shown
O=C1CC(=O)NC(=NN2C(=O)CSC2c2ccc(Cl)c(Cl)c2)N1 (stereo unspecified)    > 100 µM
COc1ccc(Br)c2c1CC(C(=O)O)CC2 (stereo unspecified)    > 100 µM
Cc1nn2c(=O)c([N+](=O)[O-])c(/C=C/c3ccccc3)nc2s1    > 100 µM
N#Cc1ncc(/N=C/c2ccc(N(CCCl)CCCl)cc2)s1    57.1 µM

Indicate its recorded TGI; the compound in question is CSc1nc2ccccc2c(=O)n1/N=C1\C(=O)N(CN2CCCCC2)c2ccc(Cl)cc21
42.7 µM

Specify TGI for NCCCNCCCNCCCN and stop.
> 100 µM

* * *

Property: TGI; scope: individual compounds
# Tested on: MDA-MB-435
# measurement-protocol: NCI tumour cell line growth inhibition, 48 h

COc1ccc(/C=C2/C(C)=NN(c3cccc(Cl)c3)/C2=N/c2nc3ccccc3s2)cc1    > 100 µM
N#CC(C#N)=CN1CCN(C(=O)c2ccco2)C1=S    40 µM
O=C1CC(=O)NC(=NN2C(=O)CSC2c2ccc(Cl)c(Cl)c2)N1 (stereo not given)    > 100 µM
CCOC(=O)/C(C)=C\[C@@]1(C)O[C@@H](C)[C@@](C)(OC(C)=O)[C@@H]1OC(C)=O    > 100 µM

Would you kindly look at the next entry?
Annotate the compound CC1(C)CCC2(C(=O)OC3OC(CO)C(O)C(O)C3O)CC[C@]3(C)C(=CCC4C5(C)CC[C@H](OC6OC(C(=O)O)C(O)C(O)C6O)C(C)(C)C5CCC43C)C2C1 (stereo not given in full) with its measured TGI.
> 50 µM

* * *

# Test system: OVCAR-3 ovarian
# measurement-protocol: NCI tumour cell line growth inhibition, 48 h
quantity-measured: TGI

Worked set:
NC(=O)c1cc2ccccc2oc1=Nc1ccccc1    > 100 µM
CCOC(=O)NC(C(F)(F)F)(C(F)(F)F)P(=O)(OC(C)C)OC(C)C    > 100 µM

Continue with the molecule presented below.
Give the reported value of TGI for this record: Fc1ccc(-c2nc3n(c2-c2ccncc2)CCS3)cc1
> 25 µM

* * *

# reported TGI; entries follow
# Test system: NCI/ADR-RES ovarian
# measurement-protocol: NCI tumour cell line growth inhibition, 48 h

For orientation, consider the following solved cases.
Cc1nn2c(=O)c([N+](=O)[O-])c(/C=C/c3ccccc3)nc2s1    > 53 µM
COc1cc(Br)c(OC)c2c(OC)cc(C)cc12    > 100 µM
COc1ccc(C(=O)/C=C/c2ccc(Cl)cc2)cc1S(=O)(=O)Nc1c(N)nc(SC)[nH]c1=O    > 100 µM
Cc1ccc(C(=O)Nc2ccc(S(=O)(=O)O)c3cc(S(=O)(=O)O)cc(S(=O)(=O)O)c23)cc1NC(=O)c1cccc(N)c1    > 100 µM
COc1ccc(/C=C(\Cl)c2ccc(OC)c(OC)c2)cc1OC    > 100 µM

Lab note: NCI/ADR-RES ovarian assay, enter TGI for COc1cc2nc(Cl)nc(Nc3cccc(C(=O)/C=C/c4ccccc4)c3)c2cc1OC here
> 100 µM

* * *

# Tested on: MCF7 breast
# measurement-protocol: NCI tumour cell line growth inhibition, 48 h
quantity-measured: TGI

Examples with their reported TGI follow.
O=C1CSC2(CC(/C=C/c3ccccc3O)=NN2c2cccc(S(=O)(=O)O)c2)N1c1nc2ccccc2s1 (centres undefined)    > 100 µM
COc1ccc(Br)c2c1CC(C(=O)O)CC2 (centres undefined)    > 100 µM

Give the reported TGI for this molecule. CC[C@H](Nc1nc(N)nc(C)c1C#N)c1nc2cccc(CN(C)c3ncc(C(=O)NO)cn3)c2c(=O)n1-c1ccccc1
> 24.5 µM

// Input: CCn1c(-c2nonc2N)nc2cncc(C(=O)N3CCNCC3)c21 . Output its TGI only.
> 25 µM

Answer with the recorded TGI for the molecule listed here: O=C(O)C(=C\c1ccc2c(c1)OCO2)/C(=C/c1ccc2c(c1)OCO2)C(=O)O
> 100 µM

Could you please provide reported TGI for CCCCCC(=O)Nc1n[nH]nc1C(N)=O ? Thanks!
> 100 µM

Find the measured TGI of Cc1c(C#N)c2nnn(C)c(=O)n2c1-c1ccccc1 and report it.
> 100 µM

Entry CN(C)CCCNC(=O)c1cc(NC(=O)CCNS(=O)(=O)c2ccc3c(c2)C(=O)c2ccccc2C3=O)cn1C needs its TGI filled in; supply it.
> 100 µM

Check the records and state TGI for O=c1cc(CNc2cc(F)cc(F)c2)c2ccc(I)cc2[nH]1
> 100 µM

* * *

TGI for assorted compounds
# System: MALME-3M melanoma
# measurement-protocol: NCI tumour cell line growth inhibition, 48 h

A selection of reference data follows.
COc1cccc(C2=C(c3cn(C)c4ccccc34)C(=O)NC2=O)c1    > 25 µM
CC1=C2CCCC2C/C(=N/Nc2ccc([N+](=O)[O-])cc2[N+](=O)[O-])CC1 (configuration not stated)    > 100 µM
Cn1c(=O)c2[nH]c(/N=N/N3CCN(CCO)CC3)nc2n(C)c1=O    > 100 µM
NC(=O)C(Nc1c(Cl)cccc1Cl)c1cc2cc(Br)ccc2nc1Cl (configuration not stated)    > 100 µM
CC(C)(C(=O)NN)c1ccccc1    > 100 µM

GET TGI | system: MALME-3M melanoma | item: NC(=S)NNC(=O)/C(=C/c1ccc(/C=C(\NC(=O)c2ccccc2)C(=O)NNC(N)=S)cc1)NC(=O)c1ccccc1
> 100 µM

Report value: TGI, system: MALME-3M melanoma, compound: O=S(=O)(c1ccc(NC(=S)NCc2cccnc2)cc1)N1CCCCC1
> 100 µM

* * *

Recorded TGI, one value per entry.
# Test system: T-47D breast
# measurement-protocol: NCI tumour cell line growth inhibition, 48 h
*1 amine or outer side, *2 acyl side, *3 side chain or, on linkers, in order; H or OH if unused. Where a SMILES comes first, the peptide text is derived from it. Bridges are numbered along the chain shown (N, C = ends). [ ]: non-standard residue; d: D form. The star is where a group is joined. X38 = CC[C@H](C)[C@@H](N[*:1])[C@@H](O)CC(=O)[*:2]; NMeY = CN[C@@H](Cc1ccc(O)cc1)C(=O)O; dNMeL = CN[C@H](CC(C)C)C(=O)O; Hiv = CC(C)[C@H](O)C(=O)O; Pyruvoyl = CC(=O)C(=O)*
Give the number; µM is assumed, so skip it.

Look over these answered cases.
CC12CCC(=O)C(O1)C1C(=O)c3cc4ccccc4cc3C(=O)C12 (stereo unspecified)    39.4
COc1ccc(Cn2nc(-c3cc(OC)c(OC)c(OC)c3)c3c2CCc2cnoc2-3)cc1OC    39.9
c1ccc2nc(Cn3c[n+](Cc4ccc5ccccc5n4)c4ccccc43)ccc2c1    9.65

Please look at CC[C@H](C)[C@H]1NC(=O)[C@@H](NC(=O)[C@@H](CC(C)C)N(C)C(=O)[C@@H]2CCCN2C(=O)C(C)=O)[C@@H](C)OC(=O)[C@H](Cc2ccc(OC)cc2)N(C)C(=O)[C@@H]2CCCN2C(=O)[C@H](CC(C)C)NC(=O)[C@H](C(C)C)OC(=O)C[C@@H]1O (Pyruvoyl-P[dNMeL]T[X38][Hiv]LP[NMeY](Me); ester 3-C) and tell me its recorded TGI on T-47D breast.
0.0113

Specify the recorded TGI for O=C1c2cc3c(cc2CC12Cc1cc4c(cc1C2=O)CCCC4)CCCC3 , system: T-47D breast.
89.1

Write down measured TGI (T-47D breast) for this compound. Fc1c(F)c(C(F)(F)F)c(F)c(F)c1N/N=C\c1c[nH]c2ccccc12
18.7

Fetch value of TGI on T-47D breast for CCCCc1ccc(Nc2nc(Cl)c3c(ncn3COCCOC(C)=O)n2)cc1 .
34.6

GET TGI | system: T-47D breast | item: CC(C)c1ccccc1SC1CC(=O)CC(Sc2ccccc2C(C)C)C12O[C@H](c1ccccc1)[C@@H](c1ccccc1)O2 (stereo partly specified)
82.9

* * *

# Tested on: MDA-MB-435
# measurement-protocol: NCI tumour cell line growth inhibition, 48 h
# reported TGI; entries follow

Example entries begin here.
COc1ccc2c(c1)CC[C@@H]1[C@@H]2CC[C@]2(C)C(=O)C3(CCCCC3)C[C@@H]12    > 100 µM
CC1=C(C(=O)Nc2cccc3c2C(=O)NC3=O)CC(C(=O)Nc2cccc3c2C(=O)NC3=O)=C(C)N1    > 100 µM
O=C(O)C(=C\c1ccc2c(c1)OCO2)/C(=C/c1ccc2c(c1)OCO2)C(=O)O    > 100 µM
CSc1nnc(CCSc2ccnc3c(C(F)(F)F)cccc23)o1    > 100 µM
O=C(O)CSSCC(=O)O    > 100 µM
CCc1ccc(NC(=O)Nc2c[nH]c3ccccc23)cc1    > 49.5 µM
Fc1ccc(-c2nc3n(c2-c2ccncc2)CCS3)cc1    > 25 µM
O=c1c2cc(S(=O)(=O)Nc3ccccc3Cl)ccc2ncn1NS(=O)(=O)c1ccc(Br)cc1    > 37.5 µM

# return recorded TGI for input CC1C2CC(CC(=O)N2)C1(C)C (configuration not stated)
> 100 µM

Give me measured TGI, please, for this molecule: CC(=O)OC1c2ccccc2CC2(OC(C)=O)c3ccccc3C12 (configuration not stated)
> 100 µM

// Input: CCOC(=O)c1ccc(C(=O)OCC)n1-c1cc2cc(c1)CSCc1cc(cc(-n3c(C(=O)OCC)ccc3C(=O)OCC)c1)CSC2 . Output its TGI only.
> 10 µM

Supply measured TGI of O=C1c2ccccc2C(=O)N1CC1(C(=O)O)NCCS1(=O)=O (configuration not stated) in your reply.
> 100 µM
